Values were extracted from ChEMBL document CHEMBL4513216.

- Test system: Plasmodium berghei
- Assay explanation: Screen against P. berghei liver stage (PbLuc), transformed with Luciferase, at 10uM
- Format: functional, HepG2
- Experimental conditions: tested at 10 uM
In all, about 69,000 compounds went through this assay and about 8,600 (12%) showed an effect of 50% or more. What follows is part of a selection rich in strong results, with near analogues and random picks from the rest.
Property name: INHIBITION

Before answering, review these 3 worked examples.
* COCCN(C)C1COC2(CCN(Cc3cccc(F)c3)CC2)C1 (centres undefined) | 26.4%
* O=S(=O)(c1ccc(F)cc1)N1CCCC(c2nccs2)C1 (centres undefined) | 13.5%
* CCN(CC)C(=O)NC(C)c1ccc(Oc2cccnc2)c(F)c1 (centres undefined) | 36.3%

Dear reader, for each entry below, please note its INHIBITION.
1. COc1nccnc1N1CCC2(CC1)C(=O)N(C)c1ccccc12
2. CC(=O)N1CCC2(CC1)CN(CC1CC1)c1ccc(F)cc12
3. COCC(=O)N1CCC2(CC1)CN(CC1CC1)c1ccc(F)cc12
4. COc1cc(CNC(=O)COC2CCCC2)ccc1O
5. O=C1CCNc2cc3c(cc2CN1Cc1ccco1)OCO3

1. -55%
2. 37.6%
3. 77.4%
4. 9.06%
5. 4.82%

Dear reader, for each entry below, please note its INHIBITION.
1. Cc1cc(C2CCCCN2C(=O)c2cccn2C)nc2nccn12 (centres undefined)
2. CC(C(=O)N1CCN(Cc2ccncc2)CC1)n1cncn1 (centres undefined)
3. Cn1c(N)nnc1SCc1c(F)cccc1Br
4. Cc1n[nH]c(C)c1CCC(=O)N(C)Cc1cn[nH]c1-c1ccc(F)cc1
5. Cc1noc(C)c1CN1C[C@H]2CC[C@@H](C1)N(Cc1cc(F)cc(F)c1)C2
6. Cc1cnc(C(=O)NCc2ccc3c(c2)CCCN3C)cn1
7. CC(C)Oc1cccc(F)c1C(C(=O)O)N1CCCC1 (centres undefined)

18.3%
4.25%
55.4%
11.8%
0.818%
19.6%
-41.4%

Dear reader, for each entry below, please note its INHIBITION.
1. Cc1nnn2c1COCC(CNC(=O)c1ccc[nH]1)C2 (centres undefined)
2. COc1cc(C(=O)NCc2ccc3c(c2)CCCN3C)cc(OC)c1Br

26.5%
34.7%
